- SYSTEM_TESTED: Short transient receptor potential channel 4 (Mus musculus, UniProt Q9QUQ5)
- Sequence (Q9QUQ5 whole entry): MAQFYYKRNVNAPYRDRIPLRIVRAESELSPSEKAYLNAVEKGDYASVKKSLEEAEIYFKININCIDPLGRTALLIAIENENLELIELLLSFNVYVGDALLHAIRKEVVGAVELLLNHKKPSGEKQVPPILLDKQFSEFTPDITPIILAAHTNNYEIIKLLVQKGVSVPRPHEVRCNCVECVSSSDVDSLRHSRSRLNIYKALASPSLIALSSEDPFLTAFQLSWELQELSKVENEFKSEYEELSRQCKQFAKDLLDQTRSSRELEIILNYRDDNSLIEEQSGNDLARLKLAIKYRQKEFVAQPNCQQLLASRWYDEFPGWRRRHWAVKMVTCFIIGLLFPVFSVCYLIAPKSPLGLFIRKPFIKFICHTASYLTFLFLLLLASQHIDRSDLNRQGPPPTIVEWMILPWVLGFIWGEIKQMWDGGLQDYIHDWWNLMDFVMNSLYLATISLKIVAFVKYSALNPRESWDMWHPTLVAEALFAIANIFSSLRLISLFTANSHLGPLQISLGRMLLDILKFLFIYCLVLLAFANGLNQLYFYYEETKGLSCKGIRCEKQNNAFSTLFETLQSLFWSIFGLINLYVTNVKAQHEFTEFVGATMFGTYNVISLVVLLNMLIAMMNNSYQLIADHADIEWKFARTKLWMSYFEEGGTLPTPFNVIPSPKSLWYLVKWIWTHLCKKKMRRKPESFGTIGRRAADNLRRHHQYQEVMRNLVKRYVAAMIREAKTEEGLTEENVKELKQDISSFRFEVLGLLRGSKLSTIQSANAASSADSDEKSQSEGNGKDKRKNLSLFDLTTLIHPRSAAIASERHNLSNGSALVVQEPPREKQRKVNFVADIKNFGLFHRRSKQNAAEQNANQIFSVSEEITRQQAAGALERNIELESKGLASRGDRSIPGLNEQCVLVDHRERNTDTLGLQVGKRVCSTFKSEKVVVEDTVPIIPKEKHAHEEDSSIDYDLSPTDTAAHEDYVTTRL
- PROTOCOL_TEXT: calcium entry via TRPC4 opening agents – cell-based, HEK293 TRPC4/mu-opioid, Fluo-4 calcium, dose response (AID 434937)
- Format: functional
Activity calls are given as the source filed them.
PROPERTY_NAME: EC50

[[record]]
compound = "Cc1cc(OCCCn2ccnc2)ccc1[N+](=O)[O-]"
property_name = "EC50"
observed_measurement = "4.73 µM (active)"


Looking up CCCCCSc1nnc2c(n1)OC(c1cccn1C)N(C(C)=O)c1ccccc1-2 (centres undefined) , I see its EC50 listed as 10.6 µM (active)

Summary for this compound, COc1ccc(C(CNC(=O)Cc2ccc(-c3ccccc3)cc2)N(C)C)cc1 (centres undefined) : EC50 is 0.267 µM (active)

CC(C)(C)C(=O)NC(=S)NNC(=O)c1ccc(-c2ccccc2)cc1 has a reported EC50 of 1.5 µM (active)

###

- SYSTEM_TESTED: Corticotropin-releasing factor receptor 2/Corticotropin-releasing factor-binding protein (Homo sapiens, UniProt P24387+Q13324)
- Sequence (Q13324 whole entry): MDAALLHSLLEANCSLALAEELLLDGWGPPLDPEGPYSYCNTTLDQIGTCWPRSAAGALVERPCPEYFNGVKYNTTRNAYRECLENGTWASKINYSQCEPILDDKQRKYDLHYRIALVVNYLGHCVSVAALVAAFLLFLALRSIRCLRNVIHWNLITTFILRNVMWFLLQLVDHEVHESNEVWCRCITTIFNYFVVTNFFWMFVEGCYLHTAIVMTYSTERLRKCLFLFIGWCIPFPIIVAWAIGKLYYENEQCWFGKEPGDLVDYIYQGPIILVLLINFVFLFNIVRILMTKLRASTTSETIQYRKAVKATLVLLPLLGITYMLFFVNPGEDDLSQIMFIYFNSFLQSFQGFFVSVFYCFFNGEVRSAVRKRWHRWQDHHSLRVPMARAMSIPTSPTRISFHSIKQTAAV
- Sequence (P24387 whole entry): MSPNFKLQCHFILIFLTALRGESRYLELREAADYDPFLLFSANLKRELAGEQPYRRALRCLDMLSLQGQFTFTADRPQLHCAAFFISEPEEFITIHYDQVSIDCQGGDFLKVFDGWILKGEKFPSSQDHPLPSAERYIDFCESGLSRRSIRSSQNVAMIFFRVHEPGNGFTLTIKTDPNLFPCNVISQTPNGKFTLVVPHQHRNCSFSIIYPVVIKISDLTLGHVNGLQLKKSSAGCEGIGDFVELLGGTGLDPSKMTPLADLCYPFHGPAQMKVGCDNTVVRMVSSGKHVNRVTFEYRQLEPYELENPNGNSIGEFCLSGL
- PROTOCOL_TEXT: activators of CRF receptor 2 with binding protein – uHTS hits, confirmation (AID 602473)
- Format: functional
- EXPERIMENTAL_CONDITIONS: read-out: EC50_Mean
Activity calls are given as the source filed them.
Return exactly one item of 1 = active, -1 = inactive

These solved cases illustrate the format of a correct answer.
[[record]]
compound = "CCCc1nnc(NC(=O)Cn2c(=O)oc3cc(Br)ccc32)s1"
cat = 1

[[record]]
compound = "CCOC(=O)c1sc2nc(C)n(CC(=O)NCC3CCCO3)c(=O)c2c1C (stereo not given)"
cat = -1

[[record]]
compound = "O=C1S/C(=C\\c2ccc(O)c([N+](=O)[O-])c2)C(=O)N1c1ccccc1Cl"
cat = -1

[[record]]
compound = "CN(Cc1ccc([N+](=O)[O-])cc1)c1ccccc1"
cat = -1

[[record]]
compound = "O=C(Nc1cccc(F)c1)c1cc(S(=O)(=O)N2CCOCC2)ccc1N1CCCC1"
cat = -1


// query Test call for this compound, please: Cc1nc2ccc(NC(=O)c3cccc(S(=O)(=O)N4CCOCC4)c3)cc2s1
// result -1

// query I'd appreciate the recorded outcome for CCOC(=O)C1CCN(c2ncnc3c2nnn3Cc2ccccc2Cl)CC1 from this test.
// result -1

// query # fetch the recorded call for CCOC(=O)N1CCN(Cc2nc3c(c(=O)n(C)c(=O)n3C)n2CCC(C)C)CC1 here
// result -1

// query How was Cc1cc(C(F)(F)F)n(-c2nc(C(=O)N/N=C/c3ccc(F)cc3)cs2)n1 classified in this test?
// result -1

// query Recorded call for COc1cc(C=O)ccc1OCCOCCOc1ccc(Cl)cc1Cl ?
// result -1

###

- SYSTEM_TESTED: Nonstructural protein 1 (Influenza A virus, UniProt Q194T2)
- Sequence (Q194T2 whole entry): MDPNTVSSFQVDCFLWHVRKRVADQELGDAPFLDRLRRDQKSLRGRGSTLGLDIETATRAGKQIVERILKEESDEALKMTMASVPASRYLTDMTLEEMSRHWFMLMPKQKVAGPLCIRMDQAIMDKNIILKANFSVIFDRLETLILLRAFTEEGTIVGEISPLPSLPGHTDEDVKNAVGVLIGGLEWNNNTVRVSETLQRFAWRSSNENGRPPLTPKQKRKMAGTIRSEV
- Format: functional, Influenza A virus (A/California/07/2009(H1N1))
Structures can show the parent of a compound that is named as a salt. Activity calls are given as the source filed them.
PROPERTY_NAME: IC50

Illustrative cases are given below, each with its answer.
[[record]]
compound = "CC(=NNC(=S)N1CCC1)c1ccccn1"
observed_measurement = "2.09 µM (active)"

[[record]]
compound = "CCN(CC)c1ccc(/N=C/c2c(C)[nH]c3ccccc23)cc1"
observed_measurement = "29.3 µM (active)"

[[record]]
compound = "Cc1onc(-c2ccccc2)c1C(=O)NC(=S)NNC(=O)c1ccc(O)cc1O"
observed_measurement = "11.4 µM (active)"

[[record]]
compound = "Oc1ccc(CN2CCCc3ccccc32)c2cccnc12"
observed_measurement = "32.2 µM (active)"


Item: Nc1ccc(N(c2ccccc2)c2ccc(N)cc2)cc1 | IC50: 9.26 µM (active)

Please fill in: IC50 reported for CN(C)c1ccc(/C=C/C=C2/C(=O)NC(=O)N(c3ccccc3)C2=O)cc1 = 12.1 µM (active)

IC50 reported for this compound Cc1nc2ccccc2nc1N/N=C/c1ccc(O)cc1O : 14.1 µM (active)

Memo: COc1cccc2c1C(=O)c1c(O)c3c(c(O)c1C2=O)C[C@@](O)(C(C)=O)C[C@@H]3O[C@H]1C[C@H](N)[C@H](O)[C@H](C)O1 [DAUNORUBICIN HYDROCHLORIDE] , reported IC50: 32.7 µM (active)

###

- SYSTEM_TESTED: Calpain-2 catalytic subunit (Sus scrofa)
- Sequence (P43367 whole entry): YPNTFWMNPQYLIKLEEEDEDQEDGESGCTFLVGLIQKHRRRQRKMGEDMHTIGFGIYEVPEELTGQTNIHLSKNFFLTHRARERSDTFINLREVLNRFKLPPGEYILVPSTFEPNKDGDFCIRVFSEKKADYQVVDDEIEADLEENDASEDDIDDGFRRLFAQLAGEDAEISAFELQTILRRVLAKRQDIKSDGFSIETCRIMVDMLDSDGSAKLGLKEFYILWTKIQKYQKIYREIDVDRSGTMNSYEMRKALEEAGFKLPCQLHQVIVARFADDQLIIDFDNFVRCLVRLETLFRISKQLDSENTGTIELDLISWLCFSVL
- PROTOCOL_TEXT: m-calpain protease blockers, concentration series – biochemical, fluorogenic peptide substrate, dose response (AID 1420)
- Format: functional
PROPERTY_NAME: IC50

Some compounds with known IC50 results, for comparison:
[[record]]
molecular_string = "O=C(c1ccc(N2CCCC2=O)cc1)N1CCCCCC1"
observed_measurement = "6.62 µM (not active)"

[[record]]
molecular_string = "O=C(Cn1nc(-c2ccc3c(c2)OCCO3)ccc1=O)Nc1cccc(NC(=O)c2ccccn2)c1"
observed_measurement = "> 50 µM (not active)"

[[record]]
molecular_string = "COC(=O)c1sc2cc(C(F)(F)F)cnc2c1-c1cccnc1"
observed_measurement = "14.3 µM (not active)"


Lab note: next compound to report on.
Form: compound = CCCCCCSc1nnc(-c2cnn(-c3ccccc3)c2-n2cccc2)n1C ; IC50 = 7.59 µM (not active)

###

Measured EC50 accompanies every entry in the list below.
- SYSTEM_TESTED: Zinc finger protein mex-5 (Caenorhabditis elegans, UniProt Q9XUB2)
- Sequence (Q9XUB2 whole entry): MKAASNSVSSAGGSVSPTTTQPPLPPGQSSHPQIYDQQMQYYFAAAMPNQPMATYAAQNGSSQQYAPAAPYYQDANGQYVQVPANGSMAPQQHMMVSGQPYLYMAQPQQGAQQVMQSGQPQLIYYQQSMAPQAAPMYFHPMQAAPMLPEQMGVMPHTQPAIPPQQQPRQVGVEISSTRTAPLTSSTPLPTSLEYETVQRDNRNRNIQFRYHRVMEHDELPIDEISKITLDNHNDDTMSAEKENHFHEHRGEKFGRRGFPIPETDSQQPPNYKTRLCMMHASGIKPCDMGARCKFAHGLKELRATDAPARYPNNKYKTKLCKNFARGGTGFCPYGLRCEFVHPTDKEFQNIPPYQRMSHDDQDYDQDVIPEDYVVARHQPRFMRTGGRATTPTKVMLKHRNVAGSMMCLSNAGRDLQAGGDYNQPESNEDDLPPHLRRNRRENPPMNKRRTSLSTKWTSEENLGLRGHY
- PROTOCOL_TEXT: potency of MEX-5 RNA-binding blockers – biochemical, C. elegans, fluorescence polarization, dose response (AID 1960)
The source made the active and inactive calls.

Examples from the recorded data:
[[record]]
molecule = "Nc1ccc2[nH]c(CCCO)nc2c1"
observed_measurement = "4.35 µM (inconclusive)"

[[record]]
molecule = "COc1cccc(C2C(C#N)=C(N)OC3=C2C(=O)CCC3)c1OC(=O)c1ccco1 (stereo not given)"
observed_measurement = "> 300 µM (not active)"


The measured EC50 that O=C(O)c1ccccc1N/N=C/c1c(Sc2nnnn2-c2ccccc2)nc2ccccn2c1=O showed for Zinc finger protein mex-5 (Caenorhabditis elegans, UniProt Q9XUB2) is 116 µM (active)

Entry CN1C(=O)C(=Cc2ccc(SC3CCCCC3)o2)C(=O)N(C)C1=O : EC50 on Zinc finger protein mex-5 (Caenorhabditis elegans, UniProt Q9XUB2) = > 300 µM (not active)

Lab note: molecule N=c1c(C(=O)NCC2CCCO2)cc2c(=O)n3ccccc3nc2n1Cc1cccnc1 (stereo not given) tested on Zinc finger protein mex-5 (Caenorhabditis elegans, UniProt Q9XUB2); recorded EC50 was 12.2 µM (active)

Record COc1ccc(CCNC(=O)c2nn(C)c3c2CS(=O)(=O)c2ccccc2-3)cc1OC ; system Zinc finger protein mex-5 (Caenorhabditis elegans, UniProt Q9XUB2); EC50 = > 300 µM (not active)

Given the molecule Cc1cc([N+](=O)[O-])ccc1-c1ccc(/C=N/NC(=O)c2ccc(Br)o2)o1 and test system Zinc finger protein mex-5 (Caenorhabditis elegans, UniProt Q9XUB2), the measured EC50 is 5.51 µM (active)

Reported EC50 (Zinc finger protein mex-5 (Caenorhabditis elegans, UniProt Q9XUB2)) for entry Cc1ccc(N=C(S)c2ccc3ccccc3n2)c(C)c1 is > 300 µM (not active)

The value of EC50 recorded for O=C(/C=C/c1ccc([N+](=O)[O-])s1)N1CCCC1 when tested on Zinc finger protein mex-5 (Caenorhabditis elegans, UniProt Q9XUB2) reads > 300 µM (not active)

Record for COc1ccc(C(=O)Nc2nnc(CC(=O)N/N=C/c3ccc(O)cc3O)s2)cc1 under target or system Zinc finger protein mex-5 (Caenorhabditis elegans, UniProt Q9XUB2): EC50 reported as > 300 µM (not active)

###

- SYSTEM_TESTED: Genome polyprotein (dengue virus type 2)
- Sequence (P29990 2492-3391 limits assumed): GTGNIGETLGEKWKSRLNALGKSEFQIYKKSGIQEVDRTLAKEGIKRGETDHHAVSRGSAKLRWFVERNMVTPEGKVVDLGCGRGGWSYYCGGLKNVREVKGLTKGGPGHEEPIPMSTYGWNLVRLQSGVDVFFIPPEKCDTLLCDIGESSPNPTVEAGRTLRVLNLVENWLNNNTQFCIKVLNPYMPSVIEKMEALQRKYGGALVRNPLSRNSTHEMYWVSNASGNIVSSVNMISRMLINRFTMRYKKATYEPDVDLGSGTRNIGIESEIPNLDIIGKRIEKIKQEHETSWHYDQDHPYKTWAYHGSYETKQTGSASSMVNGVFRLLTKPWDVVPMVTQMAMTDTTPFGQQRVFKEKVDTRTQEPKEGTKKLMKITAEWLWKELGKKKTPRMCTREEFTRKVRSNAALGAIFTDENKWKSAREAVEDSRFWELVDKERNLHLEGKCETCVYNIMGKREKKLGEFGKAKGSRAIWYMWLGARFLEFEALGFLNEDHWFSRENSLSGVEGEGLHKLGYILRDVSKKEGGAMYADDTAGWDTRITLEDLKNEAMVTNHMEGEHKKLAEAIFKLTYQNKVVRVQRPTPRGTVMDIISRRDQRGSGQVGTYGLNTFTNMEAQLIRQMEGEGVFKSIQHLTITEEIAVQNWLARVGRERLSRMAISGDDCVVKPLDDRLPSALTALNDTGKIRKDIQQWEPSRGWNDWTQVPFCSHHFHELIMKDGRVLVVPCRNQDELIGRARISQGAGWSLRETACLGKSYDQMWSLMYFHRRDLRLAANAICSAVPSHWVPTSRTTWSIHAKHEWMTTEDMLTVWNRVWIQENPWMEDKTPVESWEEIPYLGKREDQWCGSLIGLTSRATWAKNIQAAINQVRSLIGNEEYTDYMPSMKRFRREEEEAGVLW
- PROTOCOL_TEXT: flavivirus cap methylation enzyme inhibition – biochemical, confirmation dose response, primary screen (AID 588689)
- Assay type: functional
The source made the active and inactive calls.
PROPERTY_NAME: IC50

For orientation, consider the following solved cases.
[[record]]
molecular_string = "Cc1ccc(/C=C/C(=O)Nc2ccc([N+](=O)[O-])c(NC(=O)/C=C/c3ccc(C)o3)c2)o1"
property_name = "IC50"
observed_measurement = "> 100 µM (active)"

[[record]]
molecular_string = "CN(C)c1ccc(C=C2C(=O)NC(=S)NC2=O)cc1[N+](=O)[O-]"
property_name = "IC50"
observed_measurement = "12.8 µM (active)"

[[record]]
molecular_string = "COc1cc(Cl)cc(C(c2c(C(=O)O)[nH]c3ccccc23)c2c(C(=O)O)[nH]c3ccccc23)c1O"
property_name = "IC50"
observed_measurement = "16.9 µM (active)"

[[record]]
molecular_string = "CCc1ccc(N2C(=O)C(Cl)=C(N3CCOCC3)C2=O)cc1"
property_name = "IC50"
observed_measurement = "45.1 µM (active)"

[[record]]
molecular_string = "COc1ccc(N2C(=O)NC(=O)/C(=C\\c3ccccc3[N+](=O)[O-])C2=O)cc1"
property_name = "IC50"
observed_measurement = "32 µM (active)"


Briefly, IC50 measured for O=C1S/C(=C\c2ccc(O)c([N+](=O)[O-])c2)C(=O)N1c1ccccc1Cl : 40.6 µM (active)

get_value(item= Cc1cc(O)c(C(C)C)cc1N=Cc1ccc([N+](=O)[O-])cc1 , readout=IC50) returns 90.1 µM (active)

# compound CCc1sc(C(C2C(=O)CC(C)(C)CC2=O)C2C(=O)CC(C)(C)CC2=O)cc1[N+](=O)[O-] ; its IC50 = 16.4 µM (active)
